// data source = patent US20220040297A1

- Measured on: T1, CD3ε homodimer protein (human, UniProt P07766 23-126, limits assumed, sulfo-tag or biotin label in some ECL assays)
- T1 construct: also called human CD3ε homodimer protein; CD3 (CD3ε)
- Protocol text: SPR, CD3ε homodimer on chip;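 also: biacore SPR with antibody variants flowed as analyte over amine-coupled CD3ε homodimer on a CM chip, bound amount of each single-residue H chain variant over that of parent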
# ratio of amounts bound vs CE115HA000 values compiled below
Response field accepts a number only; no unit should be typed.

What value of ratio of amounts bound vs CE115HA000 has been recorded for this entry: CE115HA000 Y58L (antibody, name in Kabat numbering, V domains shown) VH: QVQLVESGGGVVQPGRSLRLSCAASGFTFSNAWMHWVRQAPGKGLEWVAQIKAKSNNYATLYAESVKGRFTISRDDSKNSLYLQMNSLKTEDTAVYYCRYVHYGAYYGVDAWGQGTTVTVSS VL: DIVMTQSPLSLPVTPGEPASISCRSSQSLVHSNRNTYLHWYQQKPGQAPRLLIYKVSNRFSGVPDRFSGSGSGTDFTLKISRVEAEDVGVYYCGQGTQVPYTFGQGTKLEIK
0.27

What value of ratio of amounts bound vs CE115HA000 has been recorded for this entry: CE115HA000 G98Q (antibody, name in Kabat numbering, V domains shown) VH: QVQLVESGGGVVQPGRSLRLSCAASGFTFSNAWMHWVRQAPGKGLEWVAQIKAKSNNYATYYAESVKGRFTISRDDSKNSLYLQMNSLKTEDTAVYYCRYVHYQAYYGVDAWGQGTTVTVSS VL: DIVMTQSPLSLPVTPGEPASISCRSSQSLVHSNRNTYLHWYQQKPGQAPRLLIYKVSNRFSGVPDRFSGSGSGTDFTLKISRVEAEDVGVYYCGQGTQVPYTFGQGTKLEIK
1.23

What value of ratio of amounts bound vs CE115HA000 has been recorded for this entry: CE115HA000 W33F (antibody, name in Kabat numbering, V domains shown) VH: QVQLVESGGGVVQPGRSLRLSCAASGFTFSNAFMHWVRQAPGKGLEWVAQIKAKSNNYATYYAESVKGRFTISRDDSKNSLYLQMNSLKTEDTAVYYCRYVHYGAYYGVDAWGQGTTVTVSS VL: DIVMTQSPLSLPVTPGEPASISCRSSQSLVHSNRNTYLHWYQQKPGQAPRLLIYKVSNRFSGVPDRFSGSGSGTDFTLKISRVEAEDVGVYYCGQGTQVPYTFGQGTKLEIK
0.65

What value of ratio of amounts bound vs CE115HA000 has been recorded for this entry: CE115HA000 D101P (antibody, name in Kabat numbering, V domains shown) VH: QVQLVESGGGVVQPGRSLRLSCAASGFTFSNAWMHWVRQAPGKGLEWVAQIKAKSNNYATYYAESVKGRFTISRDDSKNSLYLQMNSLKTEDTAVYYCRYVHYGAYYGVPAWGQGTTVTVSS VL: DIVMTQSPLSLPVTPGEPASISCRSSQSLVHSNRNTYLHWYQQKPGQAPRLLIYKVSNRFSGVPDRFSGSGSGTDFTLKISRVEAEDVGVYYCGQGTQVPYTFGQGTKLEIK
0.2

Attention now turns to another entry.
What value of ratio of amounts bound vs CE115HA000 has been recorded for this entry: CE115HA000 A102V (antibody, name in Kabat numbering, V domains shown) VH: QVQLVESGGGVVQPGRSLRLSCAASGFTFSNAWMHWVRQAPGKGLEWVAQIKAKSNNYATYYAESVKGRFTISRDDSKNSLYLQMNSLKTEDTAVYYCRYVHYGAYYGVDVWGQGTTVTVSS VL: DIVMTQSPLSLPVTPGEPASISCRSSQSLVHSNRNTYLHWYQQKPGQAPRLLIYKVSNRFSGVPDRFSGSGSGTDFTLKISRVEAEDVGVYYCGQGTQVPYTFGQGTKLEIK
1.43
